- Tested on: HeLa
- protocol_details: Cytotoxicity against human HeLa cells at 30 uM after 3 days by coulter counter method
- Assay type: cell-based
- reported_conditions: 72 h

>  <compound>
CCOC(=O)C(=O)N(Cc1ccc(F)cc1)c1ccc2c(c1)N(C)CC(C)(COc1ccc(C(=N)N)cc1)O2 (stereo unspecified)

>  <system_under_test>
HeLa

>  <Activity>
Non-toxic

$$$$
>  <compound>
CCOC(=O)CN(Cc1ccc(F)c(F)c1)c1ccc2c(c1)OC(C)(COc1ccc(C(=N)N)cc1)CN2C (stereo unspecified)

>  <system_under_test>
HeLa

>  <Activity>
Toxic

$$$$
>  <compound>
CCOC(=O)CN(Cc1ccc(F)cc1)c1ccc2c(c1)OC(C)(COc1ccc(C(=N)N)cc1)CN2C (stereo unspecified)

>  <system_under_test>
HeLa

>  <Activity>
Toxic

$$$$
>  <compound>
CCOC(=O)C(=O)N(Cc1cc(F)cc(F)c1)c1ccc2c(c1)OC(C)(COc1ccc(C(=N)N)cc1)CN2C (stereo unspecified)

>  <system_under_test>
HeLa

>  <Activity>
Non-toxic

$$$$
>  <compound>
CCOC(=O)CN(Cc1cccc(F)c1)c1ccc2c(c1)N(C)CC(C)(COc1ccc(C(=N)N)cc1)O2 (stereo unspecified)

>  <system_under_test>
HeLa

>  <Activity>
Toxic

$$$$
>  <compound>
CCOC(=O)CN(Cc1ccc(F)cc1)c1ccc2c(c1)N(C)CC(C)(COc1ccc(C(=N)N)cc1)O2 (stereo unspecified)

>  <system_under_test>
HeLa

>  <Activity>
Toxic

$$$$
>  <compound>
CCOC(=O)CN(Cc1cc(F)cc(F)c1)c1ccc2c(c1)N(C)CC(C)(COc1ccc(C(=N)N)cc1)O2 (stereo unspecified)

>  <system_under_test>
HeLa

>  <Activity>
Toxic

$$$$
>  <compound>
CCOC(=O)CN(Cc1cc(F)cc(F)c1)c1ccc2c(c1)OC(C)(COc1ccc(C(=N)N)cc1)CN2C (stereo unspecified)

>  <system_under_test>
HeLa

>  <Activity>
Toxic

$$$$
>  <compound>
CCOC(=O)CN(Cc1ccc(F)c(F)c1)c1ccc2c(c1)N(C)CC(C)(COc1ccc(C(=N)N)cc1)O2 (stereo unspecified)

>  <system_under_test>
HeLa

>  <Activity>
Toxic

$$$$
>  <compound>
CCOC(=O)C(=O)N(Cc1ccc(F)c(F)c1)c1ccc2c(c1)N(C)CC(C)(COc1ccc(C(=N)N)cc1)O2 (stereo unspecified)

>  <system_under_test>
HeLa

>  <Activity>
Non-toxic

$$$$
>  <compound>
CCOC(=O)C(=O)N(Cc1ccc(F)cc1)c1ccc2c(c1)OC(C)(COc1ccc(C(=N)N)cc1)CN2C (stereo unspecified)

>  <system_under_test>
HeLa

>  <Activity>
Non-toxic

$$$$
>  <compound>
CCOC(=O)C(=O)N(Cc1cccc(F)c1)c1ccc2c(c1)N(C)CC(C)(COc1ccc(C(=N)N)cc1)O2 (stereo unspecified)

>  <system_under_test>
HeLa

>  <Activity>
Non-toxic

$$$$
>  <compound>
CCOC(=O)CN(Cc1cccc(F)c1)c1ccc2c(c1)OC(C)(COc1ccc(C(=N)N)cc1)CN2C (stereo unspecified)

>  <system_under_test>
HeLa

>  <Activity>
Toxic

$$$$
>  <compound>
CCOC(=O)C(=O)N(Cc1ccc(F)c(F)c1)c1ccc2c(c1)OC(C)(COc1ccc(C(=N)N)cc1)CN2C (stereo unspecified)

>  <system_under_test>
HeLa

>  <Activity>
Non-toxic

$$$$
>  <compound>
CCOC(=O)C(=O)N(Cc1cccc(F)c1)c1ccc2c(c1)OC(C)(COc1ccc(C(=N)N)cc1)CN2C (stereo unspecified)

>  <system_under_test>
HeLa

>  <Activity>
Non-toxic

$$$$
>  <compound>
CCOC(=O)C(=O)N(Cc1cc(F)cc(F)c1)c1ccc2c(c1)N(C)CC(C)(COc1ccc(C(=N)N)cc1)O2 (stereo unspecified)

>  <system_under_test>
HeLa

>  <Activity>
Non-toxic

$$$$
